- METHOD: Pharmacokinetic study (oral, cannulated rats, LC/MS of plasma)
- Type: in vivo, rat
- REPORTED_CONDITIONS: rat, plasma; male Wistar rats, oral, 5 mg/kg, mixture of both compounds in Solutol HS 15/PEG300 (3:1)
- Description: Adult male Wistar rats weighing 278-290 g (Jinvier, France) were used in the study. Animals were housed in a temperature-controlled room (20-24° C.) and maintained in a 12 h light/12 h dark cycle. Food and water were available ad libitum. For surgery, rats were anaesthetised with a ketamine (90 mg/kg)/xylazine (10 mg/kg) mixture, and cannulated with silicone tubing via the right jugular vein. […]
MEASURED_METRIC: Cmax

Look up Cmax for this compound: CCC(C)[C@H](NC(=O)Cc1ccccc1F)C(=O)N[C@]1(C(=O)N[C@H](C(=S)NCC2CCOCC2)C(C)CC)CCc2[nH]c3c(C(F)(F)F)cccc3c2C1 (stereo partly shown)
38.2 ng/mL
